molecular target: Kappa-type opioid receptor (Cavia porcellus, UniProt P41144); assay: Displacement of [3H]-BRL 52537 from opioid receptor kappa site in guinea pig
Sequence (P41144 whole entry): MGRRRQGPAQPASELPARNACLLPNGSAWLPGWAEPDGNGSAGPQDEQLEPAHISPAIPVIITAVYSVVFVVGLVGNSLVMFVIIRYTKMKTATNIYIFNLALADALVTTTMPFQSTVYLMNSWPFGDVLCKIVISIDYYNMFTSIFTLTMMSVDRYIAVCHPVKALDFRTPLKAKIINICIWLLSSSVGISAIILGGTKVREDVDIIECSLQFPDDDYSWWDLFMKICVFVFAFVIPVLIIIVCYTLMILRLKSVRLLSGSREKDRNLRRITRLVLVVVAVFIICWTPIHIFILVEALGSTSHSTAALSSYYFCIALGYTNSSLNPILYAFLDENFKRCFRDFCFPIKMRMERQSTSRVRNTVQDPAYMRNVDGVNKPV
Consider the following compounds; for each one, report its pKi.
Give bare numbers, as −log10 of the molar value.

Provide reported pKi for each item, in the same order as listed.
1. O=C(Cc1ccc(Cl)c(Cl)c1)N1CCCC[C@H]1CN1CCCC1
2. O=C(Cc1ccc(Cl)c(Cl)c1)N1CCc2[nH]c3ccccc3c2C1CN1CCCC1 (stereo unspecified)
3. O=C(Cc1ccc(C(F)(F)F)cc1)N1CCc2ccccc2C1CN1CCCCC1 (single isomer, unassigned; (-))
4. O=C(Cc1ccc(C(F)(F)F)cc1)N1CCc2ccccc2[C@H]1CN1CCCC1 (stereo in doubt; 30)
5. O=C(Cc1ccc(Cl)c(Cl)c1)N1CCc2sccc2C1CN1CCCCC1 (stereo unspecified)
6. O=C(Cc1ccc(C(F)(F)F)cc1)N1CCCC[C@H]1CN1CCCC1
7. O=C(Cc1ccc(Cl)c(Cl)c1)N1CCc2sccc2C1CN1CCCC1 (stereo unspecified)
8. O=C(Cc1ccc(Cl)c(Cl)c1)N1CCc2ccsc2C1CN1CCCC1 (stereo unspecified)

1. 9.51
2. 7.00
3. 9.21
4. 9.62
5. 9.33
6. 9.19
7. 9.66
8. 9.34

Provide reported pKi for each item, in the same order as listed.
1. O=C(Cc1ccc(C(F)(F)F)cc1)N1CCc2sccc2C1CN1CCCCC1 (stereo unspecified)
2. CCO.CN(C)CC1c2ccccc2CCN1C(=O)Cc1ccc(Cl)c(Cl)c1.O=C(O)C(O)C(O)C(=O)O (single isomer, unassigned; (-))

1. 9.22
2. 9.29
